Parameter: Ki. Scope: all listed entries.
target: Strep ligase (D-Ala-D-Ala ligase) (Streptococcus pneumoniae serotype 4, UniProt P0CB57); test: D-Ala-D-Ala ligase Ki determination (PK/LDH coupled assay), Strep ligase; format: biochemical; settings: Table 5; Ki/ATP, avg; read-out: Strep ligase Ki/ATP (uM) avg
Sequence (P0CB57 whole entry): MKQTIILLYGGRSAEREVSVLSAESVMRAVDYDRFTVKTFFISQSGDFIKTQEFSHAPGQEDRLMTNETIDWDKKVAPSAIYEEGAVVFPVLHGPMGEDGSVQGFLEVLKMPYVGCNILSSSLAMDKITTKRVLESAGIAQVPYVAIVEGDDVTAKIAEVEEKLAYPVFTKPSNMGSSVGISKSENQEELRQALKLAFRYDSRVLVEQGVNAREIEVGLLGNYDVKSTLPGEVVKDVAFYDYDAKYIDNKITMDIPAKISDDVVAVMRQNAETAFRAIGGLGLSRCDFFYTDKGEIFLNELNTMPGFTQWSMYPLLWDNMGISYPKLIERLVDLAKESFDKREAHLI
Unit µM implied. Number only.

CCOc1ccc2ccccc2c1CN(CCCCN)c1ncc2c(N)nc(N)nc2n1 = 4.5

[Q] Item under review: CCCN(c1ncc2c(N)nc(N)nc2n1)C(C)c1cccc2ccccc12 (stereo not shown) . Reported Ki?
[A] 439

[Q] Item under review: CC(c1cccc2ccccc12)N(CCCCN)c1ncc2c(N)nc(N)nc2n1 (stereo not shown) [drawing 55] . Reported Ki?
[A] 23.1

[Q] Item under review: CC(c1cccc2ccccc12)N(CCCN)c1ncc2c(N)nc(N)nc2n1 (stereo not shown) . Reported Ki?
[A] 81.2

* * *

molecular target: E. coli ligase (D-Ala-D-Ala ligase) (Escherichia coli, UniProt P07862); assay: D-Ala-D-Ala ligase Ki determination (PK/LDH coupled assay), E. coli ligase; assay type: biochemical; settings: Table 1; read-out: Ki (E. coli ligase)/μM
Parameter: Ki. Scope: all listed entries.
Lab note: write values as number then unit, every time.

The following molecules have reported results that may help.
Nc1nc(N)c2cnc(NCc3ccc(Cl)c(Cl)c3)nc2n1 = 20 µM
Nc1nc(N)c2cnc(CNC(=O)/C=C/c3ccccc3)nc2n1 = 92 µM
Nc1nc(N)c2cnc(Nc3ccc(Cl)c(C(=O)NCc4cccs4)c3)nc2n1 = 0.5 µM

[Q] Item under review: CN(Cc1cc2ccccc2s1)c1ncc2c(N)nc(N)nc2n1 . Reported Ki?
[A] 2.9 µM

[Q] Item under review: CC(Nc1ncc2c(N)nc(N)nc2n1)C(=O)Nc1ccc2ccccc2c1 (stereo not shown) . Reported Ki?
[A] 29 µM

[Q] Item under review: Nc1nc(N)c2cnc(N3CCC(O)(c4cccc(F)c4)CC3)nc2n1 . Reported Ki?
[A] 0.59 µM

[Q] Item under review: CN(Cc1cccc2ccccc12)c1ncc2c(N)nc(N)nc2n1 . Reported Ki?
[A] 3 µM

[Q] Item under review: Nc1nc(N)c2ccc(-c3ccccc3)nc2n1 . Reported Ki?
[A] 31 µM

[Q] Item under review: CCOc1ccc2ccccc2c1CN(CC(=O)O)c1ncc2c(N)nc(N)nc2n1 . Reported Ki?
[A] 8.7 µM

[Q] Item under review: Nc1nc(N)c2nc(CNc3cc(Cl)cc(Cl)c3)cnc2n1 . Reported Ki?
[A] 1 µM

[Q] Item under review: Nc1nc(N)c2cnc(N[C@H]3CCN(Cc4ccccc4)C3)nc2n1 . Reported Ki?
[A] 13 µM

[Q] Item under review: CN(CCC=C1c2ccccc2CCc2ccccc21)c1ncc2c(N)nc(N)nc2n1 . Reported Ki?
[A] 9 µM

[Q] Item under review: CC(c1cccc2ccccc12)N(CC(O)C(=O)O)c1ncc2c(N)nc(N)nc2n1 (stereo not shown) . Reported Ki?
[A] 0.5 µM
